test system: NAD-dependent protein deacetylase sirtuin-2 (Homo sapiens) (UniProt Q8IXJ6)
Sequence (whole entry): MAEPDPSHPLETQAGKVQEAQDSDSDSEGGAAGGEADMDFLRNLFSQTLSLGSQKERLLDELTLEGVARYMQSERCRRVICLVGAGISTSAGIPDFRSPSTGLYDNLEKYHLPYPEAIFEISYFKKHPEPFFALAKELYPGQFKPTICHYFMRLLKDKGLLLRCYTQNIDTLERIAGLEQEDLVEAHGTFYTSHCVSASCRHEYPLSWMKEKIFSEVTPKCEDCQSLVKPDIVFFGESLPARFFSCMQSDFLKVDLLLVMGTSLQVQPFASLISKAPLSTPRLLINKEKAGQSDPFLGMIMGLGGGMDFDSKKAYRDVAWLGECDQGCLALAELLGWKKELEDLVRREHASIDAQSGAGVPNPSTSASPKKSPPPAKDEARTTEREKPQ
protocol notes: Inhibition of human recombinant GST-tagged SIRT2 preincubated at 200 uM for 5 mins measured after 1 hr by Fluor de Lys-based fluorescence assay
metric: inhibition (%)

INSERT INTO measurements (compound, test_system, recorded_number) VALUES
  ('CCCCC[C@@H]1CC(=O)c2cc(Cl)cc(Br)c2O1', 'NAD-dependent protein deacetylase sirtuin-2 (Homo sapiens) (UniProt Q8IXJ6)', 70),
  ('O=C1CC(CCc2c[nH]c3ccccc23)Oc2c(Br)cc(Cl)cc21 (racemic)', 'NAD-dependent protein deacetylase sirtuin-2 (Homo sapiens) (UniProt Q8IXJ6)', 53),
  ('CCCCCC1CCc2cc(Cl)cc(Br)c2O1 (stereo not drawn)', 'NAD-dependent protein deacetylase sirtuin-2 (Homo sapiens) (UniProt Q8IXJ6)', 38),
  ('CCCCCc1cc(=O)c2cc(Cl)cc(Br)c2o1', 'NAD-dependent protein deacetylase sirtuin-2 (Homo sapiens) (UniProt Q8IXJ6)', 82),
  ('CCCCCC1CC(=O)c2cc([N+](=O)[O-])ccc2O1 (racemic)', 'NAD-dependent protein deacetylase sirtuin-2 (Homo sapiens) (UniProt Q8IXJ6)', 58),
  ('CC(C)C1CC(=O)c2cc(Cl)cc(Br)c2O1 (racemic)', 'NAD-dependent protein deacetylase sirtuin-2 (Homo sapiens) (UniProt Q8IXJ6)', 52),
  ('CCCCC[C@H]1CC(=O)c2cc(Cl)cc(Br)c2O1', 'NAD-dependent protein deacetylase sirtuin-2 (Homo sapiens) (UniProt Q8IXJ6)', 91),
  ('CCCCCC1CC(=O)c2cccc(Br)c2O1 (racemic)', 'NAD-dependent protein deacetylase sirtuin-2 (Homo sapiens) (UniProt Q8IXJ6)', 28),
  ('CCCCCC1CC(=O)c2cc(Cl)cc(Br)c2O1 (racemic)', 'NAD-dependent protein deacetylase sirtuin-2 (Homo sapiens) (UniProt Q8IXJ6)', 88),
  ('CCCCCC1CC(=O)c2cc(C)cc(C)c2O1 (racemic)', 'NAD-dependent protein deacetylase sirtuin-2 (Homo sapiens) (UniProt Q8IXJ6)', 83),
  ('O=C1CC(CCc2ccccc2)Oc2c(Br)cc(Cl)cc21 (racemic)', 'NAD-dependent protein deacetylase sirtuin-2 (Homo sapiens) (UniProt Q8IXJ6)', 81),
  ('CCCCCC1CC(=O)c2ccc(F)cc2O1 (racemic)', 'NAD-dependent protein deacetylase sirtuin-2 (Homo sapiens) (UniProt Q8IXJ6)', 18),
  ('O=c1cc(-c2ccccc2)oc2c(Br)cc(Cl)cc12', 'NAD-dependent protein deacetylase sirtuin-2 (Homo sapiens) (UniProt Q8IXJ6)', 20),
  ('CCCCCC1CC(=O)c2cc(F)cc(F)c2O1 (racemic)', 'NAD-dependent protein deacetylase sirtuin-2 (Homo sapiens) (UniProt Q8IXJ6)', 30),
  ('CCCC1CC(=O)c2cc(Cl)cc(Br)c2O1 (racemic)', 'NAD-dependent protein deacetylase sirtuin-2 (Homo sapiens) (UniProt Q8IXJ6)', 76),
  ('Cc1ccc(S(=O)(=O)n2cc(CCC3CC(=O)c4cc(Cl)cc(Br)c4O3)c3ccccc32)cc1 (racemic)', 'NAD-dependent protein deacetylase sirtuin-2 (Homo sapiens) (UniProt Q8IXJ6)', 27),
  ('CCCCCC1C=Cc2cc(Cl)cc(Br)c2O1 (stereo not drawn)', 'NAD-dependent protein deacetylase sirtuin-2 (Homo sapiens) (UniProt Q8IXJ6)', 38),
  ('CCCCCCCC1CC(=O)c2cc(Cl)cc(Br)c2O1 (racemic)', 'NAD-dependent protein deacetylase sirtuin-2 (Homo sapiens) (UniProt Q8IXJ6)', 57),
  ('CCCCCC1CC(=O)c2cc(Br)cc(Br)c2O1 (racemic)', 'NAD-dependent protein deacetylase sirtuin-2 (Homo sapiens) (UniProt Q8IXJ6)', 92),
  ('CCCCCC1CC(=O)c2cc(OC)ccc2O1 (racemic)', 'NAD-dependent protein deacetylase sirtuin-2 (Homo sapiens) (UniProt Q8IXJ6)', 20),
  ('CCCCCC1CC(=O)c2cc(Cl)ccc2O1 (racemic)', 'NAD-dependent protein deacetylase sirtuin-2 (Homo sapiens) (UniProt Q8IXJ6)', 55),
  ('CCCCCC1CC(=O)c2ccccc2O1 (racemic)', 'NAD-dependent protein deacetylase sirtuin-2 (Homo sapiens) (UniProt Q8IXJ6)', 4.9),
  ('CCCCCC1CC(O)c2cc(Cl)cc(Br)c2O1 (mixture of isomers)', 'NAD-dependent protein deacetylase sirtuin-2 (Homo sapiens) (UniProt Q8IXJ6)', 31);
